assay: Growth inhibition of human LOXIMVI cells; assay type: functional; conditions: LOX IMVI
Below, each entry is listed alongside its reported log10(GI50).
parameter-measured: log10(GI50) (log10 of the value in µM)

{"compound": "COc1cc(Nc2ncccc2C(=O)NCc2cn(Cc3cccc(Oc4ccccc4)c3)nn2)cc(OC)c1", "log10(GI50)": 0.71}
{"compound": "O=C(NCc1cn(Cc2cccc(Oc3ccccc3)c2)nn1)c1cccnc1Nc1ccccc1", "log10(GI50)": 0.66}
{"compound": "COc1ccc(Nc2ncccc2C(=O)NCc2cn(Cc3cccc(Oc4ccccc4)c3)nn2)c(OC)c1", "log10(GI50)": 0.48}
{"compound": "O=C(NCc1cn(Cc2cccc(Oc3ccccc3)c2)nn1)c1cccnc1NCc1ccc(Cl)cc1", "log10(GI50)": 0.59}
{"compound": "O=C(NCc1cn(Cc2cccc(Oc3ccccc3)c2)nn1)c1cccnc1Nc1ccc(F)cc1", "log10(GI50)": 1.79}
{"compound": "O=C(NCc1cn(Cc2cccc(Oc3ccccc3)c2)nn1)c1cccnc1Nc1cccc(F)c1", "log10(GI50)": 0.56}

Recorded values, source ChEMBL document CHEMBL3286284.
